study-system: T1, mutant human CD20 #2 (N163D) (human, UniProt P11836 1-297)
T1 construct: Stably expressed on MG87 cells
T1 sequence: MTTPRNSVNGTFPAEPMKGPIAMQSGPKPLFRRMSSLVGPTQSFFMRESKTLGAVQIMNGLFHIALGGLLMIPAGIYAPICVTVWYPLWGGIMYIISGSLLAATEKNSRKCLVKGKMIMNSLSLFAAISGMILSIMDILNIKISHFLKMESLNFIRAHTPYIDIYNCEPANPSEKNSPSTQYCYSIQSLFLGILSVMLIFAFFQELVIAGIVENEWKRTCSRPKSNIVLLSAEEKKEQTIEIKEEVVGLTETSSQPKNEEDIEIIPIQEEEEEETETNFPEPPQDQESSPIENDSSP
assay-info: FACS, mutant-hCD20 MG87 cells; 100%=best antibody
# Percent of Binding to Mutant Human CD20 annotations
measure-name: Percent of Binding to Mutant Human CD20

3H7-6 (antibody, V domains shown, Fully human IgG, constant region not specified; also called 3H7-6N) VH: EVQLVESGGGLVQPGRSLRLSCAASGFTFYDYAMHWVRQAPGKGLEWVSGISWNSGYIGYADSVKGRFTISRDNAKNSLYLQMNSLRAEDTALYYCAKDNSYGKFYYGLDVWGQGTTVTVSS VL: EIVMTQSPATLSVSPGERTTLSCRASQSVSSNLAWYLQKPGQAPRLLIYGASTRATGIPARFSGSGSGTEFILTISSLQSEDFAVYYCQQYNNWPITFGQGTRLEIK; 1%
10F2-13 (antibody, V domains shown, Fully human IgG, constant region not specified; also called 10F2-13N; ab 10F2-13) VH: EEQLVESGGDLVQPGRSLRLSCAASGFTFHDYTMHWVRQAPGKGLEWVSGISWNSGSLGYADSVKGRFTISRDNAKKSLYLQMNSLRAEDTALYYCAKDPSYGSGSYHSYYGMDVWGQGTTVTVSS VL: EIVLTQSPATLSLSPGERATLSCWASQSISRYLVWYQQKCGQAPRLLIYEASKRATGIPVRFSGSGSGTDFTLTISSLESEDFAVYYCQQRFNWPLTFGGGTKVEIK; 54%
10E3-17 (antibody, V domains shown, Fully human IgG, constant region not specified; also called 10E3-17N) VH: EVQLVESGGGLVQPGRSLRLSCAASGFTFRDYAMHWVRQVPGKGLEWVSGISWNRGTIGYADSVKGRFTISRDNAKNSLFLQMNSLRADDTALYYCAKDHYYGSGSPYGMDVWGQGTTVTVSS VL: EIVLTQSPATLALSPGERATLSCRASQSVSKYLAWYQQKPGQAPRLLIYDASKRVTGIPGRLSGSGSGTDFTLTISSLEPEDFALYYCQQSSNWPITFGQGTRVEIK; 1%
9C11-14 (antibody, V domains shown, Fully human IgG, constant region not specified; also called 9C11-14N) VH: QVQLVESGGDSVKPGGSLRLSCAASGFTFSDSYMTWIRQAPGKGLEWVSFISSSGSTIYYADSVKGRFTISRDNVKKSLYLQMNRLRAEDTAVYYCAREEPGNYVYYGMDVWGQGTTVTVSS VL: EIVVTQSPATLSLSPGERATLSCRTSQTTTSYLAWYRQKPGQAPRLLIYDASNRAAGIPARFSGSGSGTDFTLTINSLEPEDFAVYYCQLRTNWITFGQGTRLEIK; 83%
8G6-5 (antibody, V domains shown, Fully human IgG, constant region not specified; also called 8G6-5N) VH: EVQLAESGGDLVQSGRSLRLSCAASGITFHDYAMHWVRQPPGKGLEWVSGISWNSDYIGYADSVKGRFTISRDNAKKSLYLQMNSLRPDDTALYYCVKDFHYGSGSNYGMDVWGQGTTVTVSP VL: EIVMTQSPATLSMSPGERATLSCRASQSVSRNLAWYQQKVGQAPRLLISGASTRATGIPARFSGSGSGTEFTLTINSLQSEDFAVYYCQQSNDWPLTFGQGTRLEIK; 45%

Every entry's value here was drawn from patent US20090035322A1.
